The values you see were collected from PubChem BioAssay (EPA / NIEHS).

read-out: TIMP metallopeptidase inhibitor 1 (TIMP1), TIMP1 (gene 7076); experiment: BSK_hDFCGF_TIMP1: BioMAP Diversity Plus: hDFCGF Assay for TIMP metallopeptidase inhibitor 1 (TIMP1) Biomarker Activity (AID 2283062); settings: primary human foreskin fibroblasts; actives raise or lower the signal
Activity calls are given as the source filed them. Rule for the calls: active = hit-call score of the fitted dose curve at least 0.9, where 1 is the maximum; inactive = score below 0.9.
Outcome codes: 1 (active), -1 (inactive)

>  <molecule>
COP(=S)(OC)Oc1ccc(SC)c(C)c1

>  <group label>
-1

$$$$
>  <molecule>
CCOCN(C(=O)CCl)c1c(C)cccc1CC

>  <group label>
-1

$$$$
>  <molecule>
[2H]C1([2H])[n+]2ccccc2-c2cccc[n+]2C1([2H])[2H]

>  <group label>
-1

$$$$
>  <molecule>
N#CN

>  <group label>
-1

$$$$
>  <molecule>
CC[C@H](C)[C@H]1O[C@]2(C=C[C@@H]1C)C[C@@H]1C[C@@H](C/C=C(\C)[C@@H](O[C@H]3C[C@H](OC)[C@@H](O[C@H]4C[C@H](OC)[C@@H](O)[C@H](C)O4)[C@H](C)O3)[C@@H](C)/C=C/C=C3\CO[C@@H]4[C@H](O)C(C)=C[C@@H](C(=O)O1)[C@]34O)O2 (tested in a mixture with another compound)

>  <group label>
1

$$$$
>  <molecule>
CNC(=O)Oc1cccc(N=CN(C)C)c1

>  <group label>
-1

$$$$
>  <molecule>
Clc1ccccc1-c1nnc(-c2ccccc2Cl)nn1

>  <group label>
-1

$$$$
>  <molecule>
CC1(C)C(C=C(Cl)Cl)C1C(=O)OC(C#N)c1ccc(F)c(Oc2ccccc2)c1 (configuration not stated)

>  <group label>
-1

$$$$
>  <molecule>
CC1(c2ccc(Oc3ccccc3)cc2)OC(=O)N(Nc2ccccc2)C1=O (configuration not stated)

>  <group label>
-1

$$$$
>  <molecule>
CCCN(CCC)c1c([N+](=O)[O-])cc(C(F)(F)F)cc1[N+](=O)[O-]

>  <group label>
-1

$$$$
>  <molecule>
Oc1cc(Cl)ccc1Oc1ccc(Cl)cc1Cl

>  <group label>
1

$$$$
>  <molecule>
ClC1C(Cl)C(Cl)C(Cl)C(Cl)C1Cl (configuration not stated)

>  <group label>
-1

$$$$
>  <molecule>
O=C(O)COc1ccc(Cl)cc1Cl

>  <group label>
-1

$$$$
>  <molecule>
CC(C)OC(=O)Nc1cccc(Cl)c1

>  <group label>
-1

$$$$
>  <molecule>
O=C(Nc1ccccc1)Nc1cnns1

>  <group label>
-1

$$$$
>  <molecule>
C#CCN1C(=O)COc2cc(F)c(N3C(=O)C4=C(CCCC4)C3=O)cc21

>  <group label>
-1

$$$$
>  <molecule>
COP(=O)(OC)OC=C(Cl)Cl

>  <group label>
-1

$$$$
>  <molecule>
C[C@H]1[C@H](c2ccc(Cl)cc2)SC(=O)N1C(=O)NC1CCCCC1

>  <group label>
-1

$$$$
>  <molecule>
CCC(C)(NC(=O)c1cc(Cl)c(C)c(Cl)c1)C(=O)CCl (configuration not stated)

>  <group label>
1

$$$$
>  <molecule>
O=C1c2ccccc2C(=O)N1SC(Cl)(Cl)Cl

>  <group label>
-1

$$$$
>  <molecule>
CCCN(CCOc1c(Cl)cc(Cl)cc1Cl)C(=O)n1ccnc1

>  <group label>
-1

$$$$
>  <molecule>
CC(C)(C)C(O)/C(=C\c1ccc(Cl)cc1Cl)n1cncn1 (configuration not stated)

>  <group label>
1

$$$$
